# condition.set: Ebola virus entry assay, green fluorescence channel; note: 0% is about no effect
Results with a measured potency or affinity are listed apart.
Hi there, I'd appreciate the recorded efficacy for every entry that follows.
Please respond with the number in % and leave the unit unwritten.

Per the records, this compound ( CCC(C(=O)NC(=O)NC(C)=O)c1ccccc1 (configuration not stated) ) has efficacy equal to -14.5

Consider C=CCC1(C(C)CC)C(=O)NC(=O)NC1=O (configuration not stated) . Its measured efficacy is 14.7

Per the records, this compound ( "C#C[C@]1(O)CC[C@H]2[C@@H]3CCc4cc(OC5CCCC5)ccc4[C@H]3CC[C@@]21C" ) has efficacy equal to 57.3

efficacy recorded for this compound, "COc1cc2c3cc1Oc1cc(ccc1O)C[C@@H]1c4c(cc(OC)c(O)c4Oc4ccc(cc4)C[C@@H]3N(C)CC2)CC[N+]1(C)C" , is -16.5

Note to self: efficacy recorded for "COC(=O)C(Cl)C(=O)OC" was 18.5

Value of efficacy reported for the compound "C[C@]12Cc3cn[nH]c3C[C@@H]1CC[C@@H]1[C@@H]2CC[C@@]2(C)[C@H]1CC[C@]2(C)O" is 8.25

Entry under test: "Cc1cc(O)cc2c1O[C@](C)(CCC[C@H](C)CCC[C@H](C)CCCC(C)C)CC2" . Its efficacy was -22.5

Just for reference, PubChem BioAssay (NCATS) is where these values come from.
